Origin of measurements: ChEMBL document CHEMBL1155993

Tested on: Staphylococcus aureus
Assay: Antibacterial activity against Staphylococcus aureus UC76 by NCCLS method
Format: functional, organism-based
Settings: read-out: MIC
Listed compounds paired with reported MIC

[
  {
    "Structure string": "CCNC(=O)Nc1cn2c(-c3nccc(C(=O)OC)n3)cc(-c3cccnc3)cc2n1",
    "MIC, µg/mL": 8
  },
  {
    "Structure string": "CCNC(=O)Nc1cn2c(-c3ncc(C)cn3)cc(-c3cccnc3)cc2n1",
    "MIC, µg/mL": 0.5
  },
  {
    "Structure string": "Cc1cnc(-c2cc(-c3cccnc3)cc3nc(NC(=O)NC4CC4)cn23)nc1",
    "MIC, µg/mL": 64
  },
  {
    "Structure string": "CCCCNC(=O)Nc1cn2c(-c3ncc(C)cn3)cc(-c3cccnc3)cc2n1",
    "MIC, µg/mL": 8
  },
  {
    "Structure string": "CCNC(=O)Nc1cn2c(-c3ncc(C(F)(F)F)cn3)cc(-c3cccnc3)cc2n1",
    "MIC, µg/mL": 1
  },
  {
    "Structure string": "CCNC(=O)Nc1cn2c(-c3ncc(C)cn3)cc(-c3ccn(C)c(=O)c3)cc2n1",
    "MIC, µg/mL": 0.5
  },
  {
    "Structure string": "CCNC(=O)Nc1cn2c(-c3ncccn3)cc(-c3cccnc3)cc2n1",
    "MIC, µg/mL": 0.5
  },
  {
    "Structure string": "CCNC(=O)Nc1cn2c(-c3ncc(C)cn3)cc(-c3ccn(CCF)c(=O)c3)cc2n1",
    "MIC, µg/mL": 0.5
  },
  {
    "Structure string": "CCCn1ccc(-c2cc(-c3ncc(C)cn3)n3cc(NC(=O)NCC)nc3c2)cc1=O",
    "MIC, µg/mL": 0.125
  },
  {
    "Structure string": "CCNC(=O)Nc1cn2c(-c3nc(C)cc(C(F)(F)F)n3)cc(-c3cccnc3)cc2n1",
    "MIC, µg/mL": 0.5
  },
  {
    "Structure string": "CCNC(=O)Nc1cn2c(-c3ncccn3)cc(-c3cncnc3)cc2n1",
    "MIC, µg/mL": 0.5
  },
  {
    "Structure string": "CCNC(=O)Nc1cn2c(-c3ncc(CC)cn3)cc(-c3cccnc3)cc2n1",
    "MIC, µg/mL": 0.25
  },
  {
    "Structure string": "CCNC(=O)Nc1cn2c(-c3ncccn3)cc(-c3ccc(C)nc3)cc2n1",
    "MIC, µg/mL": 0.25
  },
  {
    "Structure string": "CCNC(=O)Nc1cn2c(-c3nc(C)cc(C)n3)cc(-c3cccnc3)cc2n1",
    "MIC, µg/mL": 1
  },
  {
    "Structure string": "CCNC(=O)Nc1cn2c(-c3ncc(C)cn3)cc(-c3cncnc3)cc2n1",
    "MIC, µg/mL": 0.25
  },
  {
    "Structure string": "CCNC(=O)Nc1cn2c(-c3ncccn3)cc(-c3cnc(N(C)C)nc3)cc2n1",
    "MIC, µg/mL": 1
  },
  {
    "Structure string": "CCNC(=O)Nc1cn2c(-c3nc(C(F)(F)F)cc(C(F)(F)F)n3)cc(-c3cccnc3)cc2n1",
    "MIC, µg/mL": 2
  },
  {
    "Structure string": "CCNC(=O)Nc1cn2c(-c3ncc(F)cn3)cc(-c3cccnc3)cc2n1",
    "MIC, µg/mL": 1
  },
  {
    "Structure string": "CCNC(=O)Nc1cn2c(-c3ncc(C)cn3)cc(-c3ccc(OC)nc3)cc2n1",
    "MIC, µg/mL": 0.5
  },
  {
    "Structure string": "CCC(=O)Nc1cn2c(-c3ncc(C)cn3)cc(-c3cccnc3)cc2n1",
    "MIC, µg/mL": 64
  }
]
